# Tested on: Wnt activity (Sp5-Luc reporter, SW480 colon carcinoma cells)
# assay_name: Wnt activity screening assay, Sp5-Luc reporter gene in SW480 cells
# Assay type: cell-based
# details: Homo sapiens, SW480; read-out: percent inhibition at 10 μM
Examples of molecules with documented inhibition at 10 µM follow.

molecule	inhibition at 10 µM, %
c1cncc(-c2ccc3[nH]nc(-c4cc5c(-c6ccsc6)ccnc5[nH]4)c3c2)c1 [Compound 284]	38
CN(C)Cc1cncc(-c2cc(F)c3[nH]nc(-c4cc5c(-c6cccc(F)c6)ccnc5[nH]4)c3c2)c1 [Compound 992]	17
CN1CCN(c2ccnc3[nH]c(-c4n[nH]c5ccc(-c6cncc(NC(=O)CC7CCNCC7)c6)cc45)cc23)CC1 [Compound 641]	10.8
CC(C)(C)CC(=O)Nc1cncc(-c2ccc3[nH]nc(-c4cc5c(N6CCCCC6)ccnc5[nH]4)c3c2)c1 [Compound 184]	11.9
O=C(Cc1ccccc1)Nc1cncc(-c2ccc3[nH]nc(-c4cc5c(N6CCCCC6)ccnc5[nH]4)c3c2)c1 [Compound 178]	13.8
CC(C)(C)CC(=O)Nc1cncc(-c2ccc3[nH]nc(-c4cc5c(-c6ccccc6F)ccnc5[nH]4)c3c2)c1 [Compound 72]	9.3
CCCCC(=O)Nc1cncc(-c2ccc3[nH]nc(-c4cc5c(-c6ccccc6F)ccnc5[nH]4)c3c2)c1 [Compound 75]	13
CCNCc1cncc(-c2ccc3[nH]nc(-c4cc5c(-c6cccnc6)ccnc5[nH]4)c3c2)c1 [Compound 90]	28.6
CN(C)c1cncc(-c2ccc3[nH]nc(-c4cc5c(N6CCCCC6)ccnc5[nH]4)c3c2)c1 [Compound 175]	10.7
O=C(Cc1ccccc1)Nc1cncc(-c2ccc3[nH]nc(-c4cc5c(-c6ccncc6)ccnc5[nH]4)c3c2)c1 [Compound 122]	28.3
c1cncc(-c2ccc3[nH]nc(-c4cc5c(N6CCCCC6)ccnc5[nH]4)c3c2)c1 [Compound 172]	48.2

* * *

# System: primary human mesenchymal stem cells (hMSCs)
# assay_name: Induction of chondrogenesis in human mesenchymal stem cells (nodule area, Rhodamine B/Nile Red)
# Format: cell-based
# details: hMSC chondrogenesis, relative to TGF-β3 (10 ng/mL) positive control, read-out: Max. Activity as % TGF-β3 activity
Please respond with yes when measured Emax is strictly beneath 40%, and with no in all other cases.

mol	tested_target	discrete_label
CN(C)Cc1cncc(-c2cc(F)c3[nH]nc(-c4cc5c(-c6cccc(F)c6)ccnc5[nH]4)c3c2)c1	primary human mesenchymal stem cells (hMSCs)	yes
CC(C)C(=O)Nc1cncc(-c2ccc3[nH]nc(-c4cc5cccnc5[nH]4)c3c2)c1	primary human mesenchymal stem cells (hMSCs)	no
CCCCC(=O)Nc1cncc(-c2ccc3[nH]nc(-c4cc5cccnc5[nH]4)c3c2)c1	primary human mesenchymal stem cells (hMSCs)	yes
Fc1cccc(-c2ccnc3[nH]c(-c4n[nH]c5ccc(C6CCNCC6)cc45)cc23)c1	primary human mesenchymal stem cells (hMSCs)	no
c1cncc(-c2ccc3[nH]nc(-c4cc5c(N6CCCCC6)ccnc5[nH]4)c3c2)c1	primary human mesenchymal stem cells (hMSCs)	no
Cc1ccncc1-c1ccc2[nH]nc(-c3cc4c(-c5ccccc5F)ccnc4[nH]3)c2c1	primary human mesenchymal stem cells (hMSCs)	no
c1cnc2[nH]c(-c3n[nH]c4ccc(-c5cncnc5)cc34)cc2c1	primary human mesenchymal stem cells (hMSCs)	no
Cc1ccncc1-c1ccc2[nH]nc(-c3cc4c(-c5ccncc5)ccnc4[nH]3)c2c1	primary human mesenchymal stem cells (hMSCs)	no
CC(C)Nc1cncc(-c2ccc3[nH]nc(-c4cc5c(-c6cccnc6)ccnc5[nH]4)c3c2)c1	primary human mesenchymal stem cells (hMSCs)	no
Nc1cncc(-c2ccc3[nH]nc(-c4cc5c(N6CCCCC6)ccnc5[nH]4)c3c2)c1	primary human mesenchymal stem cells (hMSCs)	no
c1cc(-c2ccsc2)c2cc(-c3n[nH]c4ccc(-c5cncc(CN6CCCCC6)c5)cc34)[nH]c2n1	primary human mesenchymal stem cells (hMSCs)	no
Fc1ccc(-c2ccnc3[nH]c(-c4n[nH]c5ccc(-c6cncnc6)cc45)cc23)cc1	primary human mesenchymal stem cells (hMSCs)	no
CCNCc1cncc(-c2ccc3[nH]nc(-c4cc5c(-c6cccnc6)ccnc5[nH]4)c3c2)c1	primary human mesenchymal stem cells (hMSCs)	yes
CN(C)Cc1cncc(-c2ccc3[nH]nc(-c4cc5c(-c6ccncc6)ccnc5[nH]4)c3c2)c1	primary human mesenchymal stem cells (hMSCs)	yes
O=C(Nc1cncc(-c2ccc3[nH]nc(-c4cc5cccnc5[nH]4)c3c2)c1)C1CCCC1	primary human mesenchymal stem cells (hMSCs)	yes
Nc1cncc(-c2ccc3[nH]nc(-c4cc5c(-c6ccccc6F)ccnc5[nH]4)c3c2)c1	primary human mesenchymal stem cells (hMSCs)	yes
CCC(=O)Nc1cncc(-c2ccc3[nH]nc(-c4cc5c(-c6cccc(F)c6)ccnc5[nH]4)c3c2)c1	primary human mesenchymal stem cells (hMSCs)	no
c1cc(-c2ccnc3[nH]c(-c4n[nH]c5ccc(-c6cncnc6)cc45)cc23)ccn1	primary human mesenchymal stem cells (hMSCs)	yes
Cn1cc(-c2ccc3[nH]nc(-c4cc5c(-c6cccnc6)ccnc5[nH]4)c3c2)cn1	primary human mesenchymal stem cells (hMSCs)	yes
CC(C)(C)C(=O)Nc1cncc(-c2ccc3[nH]nc(-c4cc5c(-c6ccncc6)ccnc5[nH]4)c3c2)c1	primary human mesenchymal stem cells (hMSCs)	no

* * *

Examples of molecules with documented inhibition at 10 µM follow.
# Test system: Wnt activity (Sp5-Luc reporter, SW480 colon carcinoma cells)
# assay_name: Wnt activity screening assay, Sp5-Luc reporter gene in SW480 cells
# Type: cell-based
# details: Homo sapiens, SW480; read-out: percent inhibition at 10 μM

mol	inhibition at 10 µM, %
O=C(Nc1cncc(-c2ccc3[nH]nc(-c4cc5c(-c6ccc(F)cc6)ccnc5[nH]4)c3c2)c1)c1ccccc1	0
COc1cncc(-c2ccc3[nH]nc(-c4cc5c(-c6ccoc6)ccnc5[nH]4)c3c2)c1	20
COc1cncc(-c2ccc3[nH]nc(-c4cc5c(-c6ccco6)ccnc5[nH]4)c3c2)c1	7.9
O=C(Nc1cncc(-c2ccc3[nH]nc(-c4cc5c(-c6cccnc6)ccnc5[nH]4)c3c2)c1)C1CCCCC1	10.6
Fc1cccc(-c2ccnc3[nH]c(-c4n[nH]c5ccc(-c6ccccn6)cc45)cc23)c1	8.5
O=C(Nc1cncc(-c2ccc3[nH]nc(-c4cc5c(-c6ccccn6)ccnc5[nH]4)c3c2)c1)C1CCCCC1	38.8
FC1(F)CCN(Cc2cncc(-c3ccc4[nH]nc(-c5cc6c(N7CCCCC7)ccnc6[nH]5)c4c3)c2)C1	26.2
c1cnc2[nH]c(-c3n[nH]c4ccc(-c5cncnc5)cc34)cc2c1	16.6
O=C(Nc1cncc(-c2ccc3[nH]nc(-c4cc5c(-c6ccncc6)ccnc5[nH]4)c3c2)c1)C1CCC1	2.8
CC(C)Nc1cncc(-c2ccc3[nH]nc(-c4cc5c(-c6ccccc6F)ccnc5[nH]4)c3c2)c1	18.7
c1cncc(-c2ccnc3[nH]c(-c4n[nH]c5ccc(-c6cncc(CN7CCCCC7)c6)cc45)cc23)c1	18.6
CN(C)Cc1cncc(-c2ccc3[nH]nc(-c4cc5c(-c6ccncc6)ccnc5[nH]4)c3c2)c1	29.7
c1cc(N2CCCCC2)c2cc(-c3n[nH]c4ccc(-c5cncc(CN6CCCC6)c5)cc34)[nH]c2n1	36
O=C(Nc1cncc(-c2ccc3[nH]nc(-c4cc5c(-c6ccncc6)ccnc5[nH]4)c3c2)c1)c1ccccc1	17.3
CC(C)CC(=O)Nc1cncc(-c2ccc3[nH]nc(-c4cc5c(-c6ccc(F)cc6)ccnc5[nH]4)c3c2)c1	13.6
O=C(Nc1cncc(-c2ccc3[nH]nc(-c4cc5c(-c6ccc(F)cc6)ccnc5[nH]4)c3c2)c1)C1CCC1	10.6
c1cncc(-c2ccc3[nH]nc(-c4cc5c(-c6cccnc6)ccnc5[nH]4)c3c2)c1	48.8
Cc1ccncc1-c1ccc2[nH]nc(-c3cc4c(-c5ccncc5)ccnc4[nH]3)c2c1	31.8
O=C(Nc1cncc(-c2ccc3[nH]nc(-c4cc5c(N6CCCCC6)ccnc5[nH]4)c3c2)c1)C1CC1	27.6
CCCCC(=O)Nc1cncc(-c2ccc3[nH]nc(-c4cc5c(-c6ccncc6)ccnc5[nH]4)c3c2)c1	16.7
CC(C)C(=O)Nc1cncc(-c2ccc3[nH]nc(-c4cc5c(-c6ccccc6F)ccnc5[nH]4)c3c2)c1	30.5
Fc1cccc(-c2ccnc3[nH]c(-c4n[nH]c5ccc(-c6cncc(CN7CCC(F)(F)C7)c6)cc45)cc23)c1	49
CC(C)(C)C(=O)Nc1cncc(-c2ccc3[nH]nc(-c4cc5c(-c6ccncc6)ccnc5[nH]4)c3c2)c1	36.6
c1cc(-c2ccsc2)c2cc(-c3n[nH]c4ccc(-c5cncc(CN6CCCCC6)c5)cc34)[nH]c2n1	37.1
Cc1ncc(-c2ccc3[nH]nc(-c4cc5c(-c6ccncc6)ccnc5[nH]4)c3c2)n1C	8
CN(C)Cc1cncc(-c2ccc3[nH]nc(-c4cc5c(N6CCCCC6)ccnc5[nH]4)c3c2)c1	26.2

* * *

Examples of compounds with documented inhibition at 10 µM follow.
# System: Wnt activity (Sp5-Luc reporter, SW480 colon carcinoma cells)
# assay_name: Wnt activity screening assay, Sp5-Luc reporter gene in SW480 cells
# Format: cell-based
# details: Homo sapiens, SW480; read-out: percent inhibition at 10 μM

compound	tested_target	inhibition at 10 µM / %
c1cnc2[nH]c(-c3n[nH]c4ccc(-c5ccncc5)cc34)cc2c1 [Compound 270]	Wnt activity (Sp5-Luc reporter, SW480 colon carcinoma cells)	45.7
O=C(Nc1cncc(-c2ccc3[nH]nc(-c4cc5c(-c6ccccc6F)ccnc5[nH]4)c3c2)c1)C1CCCC1 [Compound 78]	Wnt activity (Sp5-Luc reporter, SW480 colon carcinoma cells)	1.9
NC1CN(c2cncc(-c3ccc4[nH]nc(-c5cc6c(N7CCCCC7)ccnc6[nH]5)c4c3)n2)C1 [Compound 606]	Wnt activity (Sp5-Luc reporter, SW480 colon carcinoma cells)	20.2
CN(C)CCOc1cncc(-c2ccc3[nH]nc(-c4cc5c(-c6ccc(F)cc6)ccnc5[nH]4)c3c2)c1 [Compound 531]	Wnt activity (Sp5-Luc reporter, SW480 colon carcinoma cells)	2.3
